Where do these numbers come from? They come from PubChem BioAssay (Tox21).

Experiment: qHTS assay to identify small molecule antagonists of the estrogen receptor beta (ER-beta) signaling pathway - cell viability counter screen (AID 1259382); note: nearly all actives have a fitted effect of over 55% in size
Conditions: ER-beta-UAS-bla HEK293T viability, CellTiter-Glo luminescence, 16 h; series mostly up to 92.4 µM
Inconclusive results are not listed. Activity calls are given as the source filed them. Calls come from the whole dose curve; as a rule, active = well fitted cell-killing curve with a large enough effect in the repeat runs; inconclusive = weak or mixed curves; inactive = flat fitted curve, though single readings scatter.
One label from this list, please: YES (active), NO (inactive)

Clc1ccc(C(c2ccccc2Cl)C(Cl)(Cl)Cl)cc1 (stereo unspecified) | NO
CC(=O)OC1(c2ccccc2)CCN(CCc2ccccc2)CC1 | NO
CCOP(=S)(OCC)SCCS(=O)(=O)CC | NO
CCCCCCCCCCCCCC[P+](CCCCCC)(CCCCCC)CCCCCC (tested in a mixture with another compound) | YES
COP(=S)(OC)Oc1cc(Cl)c(Br)cc1Cl | NO

Here is the next item to consider.
# fetch the recorded call for "CC(=O)/C=C/c1ccc2c(c1)OCO2" here
NO
